B1: Azoarcus group I ribozyme (parent)
chain: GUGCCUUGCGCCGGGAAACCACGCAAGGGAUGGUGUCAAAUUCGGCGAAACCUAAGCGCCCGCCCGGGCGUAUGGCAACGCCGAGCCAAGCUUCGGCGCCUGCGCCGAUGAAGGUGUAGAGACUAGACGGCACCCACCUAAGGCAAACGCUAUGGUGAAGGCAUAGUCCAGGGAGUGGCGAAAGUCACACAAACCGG

- Variants of: B1
- assay procedure: reverse-splicing fitness (ratio to wild type); higher = more active; in vitro selection; Mg2+ level not given
In this section, each of the variants is paired with its reported reverse-splicing fitness.
measured endpoint: reverse-splicing fitness

sequence change: A145U C169G U176G
measurement: 0.00761
--
sequence change: A120G A145G C150G C169G
measurement: 0.106
--
sequence change: C82G A111U A120G A145C C150U C169A U176A
measurement: 0.0138
--
sequence change: A120G A145C C150G C169U U176A
measurement: 0.0356
--
sequence change: A111G A120G C150U C169G U176C
measurement: 0.0735
--
sequence change: C82A A120U A145U C150A C169U
measurement: 0.00267
--
sequence change: C82G A145C C150G C169U
measurement: 0.01
--
sequence change: C82U A111C A120C A145G C150G U176G
measurement: 0.00622
--
sequence change: A120C A145C C150A C169A
measurement: 0.00701
--
sequence change: A111U A120C A145U U176G
measurement: 0.0572
--
sequence change: C82G A111G A145C C150A C169G
measurement: 0.00798
--
sequence change: C82U A120G A145G C150U U176G
measurement: 0.00573
--
sequence change: C82G A111U A120G A145C C169A U176A
measurement: 0.0152
--
sequence change: C82G A111G A120G C150A C169G U176G
measurement: 0.00621
--
sequence change: A111C A120G A145U U176A
measurement: 0.0392
--
sequence change: C82U A111G A120C A145U C150U U176C
measurement: 0.0223
--
sequence change: A111U A120U C150G C169U U176C
measurement: 0.00454
--
sequence change: C82U A111U A120U A145U C169U U176A
measurement: 0.00286
--
sequence change: A111U A145U C150U C169G U176C
measurement: 0.0192
--
sequence change: A111G A120G C150G C169A U176C
measurement: 0.0116
--
sequence change: C82G A111G A120C U176C
measurement: 0.045
--
sequence change: C82G A111G C169A
measurement: 0.00879
--
sequence change: C82G A120U A145U C150G
measurement: 0.0173
--
sequence change: C82A A111G C150G U176C
measurement: 0.0152
--
sequence change: C82U A111C A120G A145C C169G
measurement: 0.00924
--
sequence change: C82G A111U A120U A145G C150A C169G U176A
measurement: 0.00878
--
sequence change: A120U C150U C169A U176A
measurement: 0.0051
--
sequence change: A111C A120U A145G C150A C169G
measurement: 0.0103
--
sequence change: C82U A120G A145U C150U C169U
measurement: 0.0143
--
sequence change: C82G A111C A120U A145U C150A U176A
measurement: 0.00533
--
sequence change: C82U A145U C150A C169G U176A
measurement: 0.0104
--
sequence change: C82A A120G A145C C150G C169G U176G
measurement: 0.00341
--
sequence change: C82A A111U A145U U176C
measurement: 0.134
--
sequence change: C82U A111G A120U C150G C169G
measurement: 0.00572
--
sequence change: A120C C150G C169A U176G
measurement: 0.00553
--
sequence change: C82A A145C C150U U176G
measurement: 0.0335
--
sequence change: C82G A111G A120U A145U C150G C169G U176C
measurement: 0.00256
--
sequence change: C82G A145G C150G U176G
measurement: 0.0127
--
sequence change: C82A A111C A120U A145G C150G U176G
measurement: 0.00449
--
sequence change: C82A A120C A145C C150G C169A U176C
measurement: 0.00816
--
sequence change: C82U A120C A145U C150U C169G U176G
measurement: 0.00405
--
sequence change: C82A A111C A120G C150A C169U U176C
measurement: 0.018
